system: Kluyveromyces marxianus; experiment: Antifungal activity against Candida kefyr isolated from candidemia patient by AFST-EUCAST microdilution method; assay type: functional
TEST_READOUT: MIC (µg/mL)
One number for each entry, in µg/mL.

## Input Can you share its MIC? I mean this compound: CC[C@H](C)C[C@H](C)CCCCCCCCC(=O)N[C@H]1C[C@@H](O)[C@@H](NCCN)NC(=O)[C@@H]2[C@@H](O)CCN2C(=O)[C@H]([C@H](O)CCN)NC(=O)[C@H]([C@H](O)[C@@H](O)c2ccc(O)cc2)NC(=O)[C@@H]2C[C@@H](O)CN2C(=O)[C@H]([C@@H](C)O)NC1=O [CASPOFUNGIN]
## Output 8

====

system: Pichia kudriavzevii; assay: Antifungal activity against Candida krusei isolated from candidemia patient by AFST-EUCAST microdilution method; type: functional
I'd be grateful if you could share measured MIC90 for these entries.
Numbers only, in µg/mL.

I have 4 compounds here; please give me MIC90 for each one.
1. CCC(C)n1ncn(-c2ccc(N3CCN(c4ccc(OCC5COC(Cn6cncn6)(c6ccc(Cl)cc6Cl)O5)cc4)CC3)cc2)c1=O (stereo unspecified)
2. C[C@@H](c1ncncc1F)[C@](O)(Cn1cncn1)c1ccc(F)cc1F
3. OC(Cn1cncn1)(Cn1cncn1)c1ccc(F)cc1F
4. Nc1nc(=O)[nH]cc1F

## Output
1: 0.12; 2: 1; 3: 32; 4: 2

I have 2 compounds here; please give me MIC90 for each one.
1. CC[C@@H]([C@H](C)O)n1ncn(-c2ccc(N3CCN(c4ccc(OC[C@@H]5CO[C@@](Cn6cncn6)(c6ccc(F)cc6F)C5)cc4)CC3)cc2)c1=O
2. CC[C@H](C)C[C@H](C)CCCCCCCCC(=O)N[C@H]1C[C@@H](O)[C@@H](NCCN)NC(=O)[C@@H]2[C@@H](O)CCN2C(=O)[C@H]([C@H](O)CCN)NC(=O)[C@H]([C@H](O)[C@@H](O)c2ccc(O)cc2)NC(=O)[C@@H]2C[C@@H](O)CN2C(=O)[C@H]([C@@H](C)O)NC1=O

## Output
1. 0.5
2. 0.12

====

test system: [Candida] intermedia; experiment: Antifungal activity against Candida intermedia isolated from candidemia patient by AFST-EUCAST microdilution method; type: functional; conditions: Sungouiella intermedia
Numbered stars: 1 amine (or outer) side, 2 acyl side, 3 side chain; on linkers, the order of the positions; unused ones are H or OH. Bridge positions count the residues as written; N and C are the ends. Square brackets hold non-standard residues; d marks the D form. Peptide text beside a SMILES is read from it. * marks the point of attachment. hTyr(3S-OH,4S-OH,3'-OSO3H) = N[C@H](C(=O)O)[C@H](O)[C@@H](O)c1ccc(O)c(OS(=O)(=O)O)c1; pTerphenylCO(4''-OnC5H11) = CCCCCOc1ccc(-c2ccc(-c3ccc(C(=O)*)cc3)cc2)cc1; Orn(4R-OH,5R-OH) = O=C([C@H](C[C@@H](O)[C@@H](O)N[*:3])N[*:1])[*:2]; hTyr(3S-OH,4S-OH) = N[C@H](C(=O)O)[C@H](O)[C@@H](O)c1ccc(O)cc1; Pro(3S-OH,4S-Me) = C[C@H]1CN[C@H](C(=O)O)[C@H]1O; X1 = CCCCCOc1ccc(-c2cc(-c3ccc(C(=O)*)cc3)no2)cc1; Gln(3R-OH) = NC(=O)C[C@@H](O)[C@H](N)C(=O)O; Hyp = O=C(O)[C@@H]1C[C@@H](O)CN1
TEST_READOUT: MIC (µg/mL)
Give bare numbers, in µg/mL.

| COMPOUND | UNITS_SYMBOL | MIC |
| --- | --- | --- |
| CCCCCOc1ccc(-c2cc(-c3ccc(C(=O)N[C@H]4C[C@@H](O)[C@@H](O)NC(=O)[C@@H]5[C@@H](O)[C@@H](C)CN5C(=O)[C@H]([C@H](O)CC(N)=O)NC(=O)[C@H]([C@H](O)[C@@H](O)c5ccc(O)c(OS(=O)(=O)O)c5)NC(=O)[C@@H]5C[C@@H](O)CN5C(=O)[C@H]([C@@H](C)O)NC4=O)cc3)no2)cc1 [MICAFUNGIN] (X1-[Orn(4R-OH,5R-OH)]T[Hyp][hTyr(3S-OH,4S-OH,3'-OSO3H)][Gln(3R-OH)][Pro(3S-OH,4S-Me)]; lactam 1-C) | µg/mL | 0.03 |
| C[C@@H](c1ncncc1F)[C@](O)(Cn1cncn1)c1ccc(F)cc1F [VORICONAZOLE] | µg/mL | 0.06 |

Now consider a different compound.
## Input Missing value: MIC, [Candida] intermedia, entry CCCCCOc1ccc(-c2ccc(-c3ccc(C(=O)N[C@H]4C[C@@H](O)[C@@H](O)NC(=O)[C@@H]5[C@@H](O)[C@@H](C)CN5C(=O)[C@H]([C@@H](C)O)NC(=O)[C@H]([C@H](O)[C@@H](O)c5ccc(O)cc5)NC(=O)[C@@H]5C[C@@H](O)CN5C(=O)[C@H]([C@@H](C)O)NC4=O)cc3)cc2)cc1 [ANIDULAFUNGIN] ({pTerphenylCO(4''-OnC5H11)}-[Orn(4R-OH,5R-OH)]T[Hyp][hTyr(3S-OH,4S-OH)]T[Pro(3S-OH,4S-Me)]; lactam 1-C) . Fill in?
## Output 0.03

====

system: Wickerhamomyces anomalus; assay: Antifungal activity against Candida pelliculosa isolated from candidemia patient by AFST-EUCAST microdilution method; assay type: functional; conditions: Hansenula anomala
Numbered stars: 1 amine (or outer) side, 2 acyl side, 3 side chain; on linkers, the order of the positions; unused ones are H or OH. Bridge positions count the residues as written; N and C are the ends. Square brackets hold non-standard residues; d marks the D form. Peptide text beside a SMILES is read from it. * marks the point of attachment. hTyr(3S-OH,4S-OH,3'-OSO3H) = N[C@H](C(=O)O)[C@H](O)[C@@H](O)c1ccc(O)c(OS(=O)(=O)O)c1; pTerphenylCO(4''-OnC5H11) = CCCCCOc1ccc(-c2ccc(-c3ccc(C(=O)*)cc3)cc2)cc1; Orn(4R-OH,5R-OH) = O=C([C@H](C[C@@H](O)[C@@H](O)N[*:3])N[*:1])[*:2]; hTyr(3S-OH,4S-OH) = N[C@H](C(=O)O)[C@H](O)[C@@H](O)c1ccc(O)cc1; Pro(3S-OH,4S-Me) = C[C@H]1CN[C@H](C(=O)O)[C@H]1O; X1 = CCCCCOc1ccc(-c2cc(-c3ccc(C(=O)*)cc3)no2)cc1; Gln(3R-OH) = NC(=O)C[C@@H](O)[C@H](N)C(=O)O; Hyp = O=C(O)[C@@H]1C[C@@H](O)CN1
TEST_READOUT: MIC (mg/L)
One number for each entry, in mg/L.

As a guide, the following entries are already answered.
| MOLECULE | TARGET_SYSTEM | TEST_READOUT | REPORTED_RESULT |
| --- | --- | --- | --- |
| C[C@@H](c1ncncc1F)[C@](O)(Cn1cncn1)c1ccc(F)cc1F [VORICONAZOLE] | Wickerhamomyces anomalus | MIC | 0.12 |
| CCCCCOc1ccc(-c2ccc(-c3ccc(C(=O)N[C@H]4C[C@@H](O)[C@@H](O)NC(=O)[C@@H]5[C@@H](O)[C@@H](C)CN5C(=O)[C@H]([C@@H](C)O)NC(=O)[C@H]([C@H](O)[C@@H](O)c5ccc(O)cc5)NC(=O)[C@@H]5C[C@@H](O)CN5C(=O)[C@H]([C@@H](C)O)NC4=O)cc3)cc2)cc1 [ANIDULAFUNGIN] ({pTerphenylCO(4''-OnC5H11)}-[Orn(4R-OH,5R-OH)]T[Hyp][hTyr(3S-OH,4S-OH)]T[Pro(3S-OH,4S-Me)]; lactam 1-C) | Wickerhamomyces anomalus | MIC | 1 |

## Input Missing value: MIC, Wickerhamomyces anomalus, entry CCCCCOc1ccc(-c2cc(-c3ccc(C(=O)N[C@H]4C[C@@H](O)[C@@H](O)NC(=O)[C@@H]5[C@@H](O)[C@@H](C)CN5C(=O)[C@H]([C@H](O)CC(N)=O)NC(=O)[C@H]([C@H](O)[C@@H](O)c5ccc(O)c(OS(=O)(=O)O)c5)NC(=O)[C@@H]5C[C@@H](O)CN5C(=O)[C@H]([C@@H](C)O)NC4=O)cc3)no2)cc1 [MICAFUNGIN] (X1-[Orn(4R-OH,5R-OH)]T[Hyp][hTyr(3S-OH,4S-OH,3'-OSO3H)][Gln(3R-OH)][Pro(3S-OH,4S-Me)]; lactam 1-C) . Fill in?
## Output 0.5
